test: HDN33 neuroblastoma growth inhibition, cell-based, chromothripsis tumors, cisplatin or BGB combos (AID 1671450); settings: HDN33 neuroblastoma cells, at 0.5 µM, stronger effect = higher value;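 further: cells exposed to compound for four days; 0% = vehicle DMSO and 100% = cell killing by high DMSO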
Quick reference: inhibition of the listed items.
State the answer as a number, implicitly in %.

Query: inhibition; subject: Cn1c(COP(=O)(NCCBr)NCCBr)cnc1[N+](=O)[O-] -18.8

New cases:
Query: inhibition; subject: O=P(O)(NCCCl)NCCCl -31.2

Quick one: CCC1(c2ccccc2)C(=O)NC(=O)NC1=O -12.9

---

target: Protein kinase 7 (PK7), Plasmodium falciparum 3D7 (PF3D7_0213400); assay: inhibition of Plasmodium PK7 catalytic activity – biochemical, TCAMS antimalarial set, Kinase-Glo luminescence (AID 1159587); conditions: recombinant PfPK7, Kinase-Glo ATP depletion luminescence
Activity calls are given as the source filed them. How the calls were made is not given here.
experimental-readout: outcome

Consider the following illustrative entries.
Query: outcome; subject: C/C=C1\CN2CC[C@H]1C[C@H]2[C@H](O)c1ccnc2ccc(O)cc12 inactive

Quick one: CC[C@H]1CN2CC[C@@H]1C[C@H]2[C@H](O)c1cc(N2CCC(c3ccccc3)CC2)nc2ccc(OC)cc12 inactive

Quick one: Cc1ccc(CC(C)(C)NCC(O)c2cccc(C(F)(F)F)c2)cc1 (centres undefined) inactive

Quick one: CCOc1ccc(Br)cc1/C=C/C(=O)Nc1ccc2c(c1)[C@@H]1CC[C@H]2N1C inactive

New cases:
Query: outcome; subject: CC(Cc1ccc(OCCOc2ccccc2)cc1)NCC(O)c1cccc(Cl)c1 (centres undefined) inactive

Quick one: CC(=O)C1(c2ccccc2)CCN(CCC2(c3ccc(Cl)c(Cl)c3)CN(C(=O)C3CCCCC3)CCO2)CC1 (centres undefined) inactive

---

experiment: survival rescue of mitochondrial mutant cells in low glucose, primary screen, MELAS cybrids, Rieske KO mouse fibroblasts, CellTiter-Glo (AID 1508586); details: MELAS cybrid survival, CellTiter-Glo 48 h, stronger effect = higher value;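 further: z relative to plate mean and SD of compound and empty wells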
Could you label it 1 (yes) if measured z-score is -0.07 or higher, and 0 (no) otherwise?

Identify whether the reported z-score of the following molecule is -0.07 or greater: c1ccc(C2CC2)c(OCC2=NCCN2)c1 0 (no)

Quick one: CCNC(=O)CC1N=C(c2ccc(Cl)cc2)c2cc(OC)ccc2-n2c(C)nnc21 (stereo not given) 1 (yes)

Quick one: CC1OC(OC2CC(O)[C@]3(CO)[C@H]4C(O)C[C@]5(C)C(C6=CC(=O)OC6)CC[C@]5(O)[C@@H]4CC[C@]3(O)C2)C(O)C(O)C1O (stereo not given in full) 1 (yes)

Quick one: CC(C)C[C@H](CN)CC(=O)O 1 (yes)

Quick one: O=C1C[C@@H]2OCC=C3CN4CC[C@]56c7ccccc7N1[C@H]5[C@H]2[C@H]3C[C@H]46 1 (yes)

Quick one: O=[N+]([O-])c1ncc[nH]1 0 (no)

Quick one: Oc1ccc(C2(c3ccc(O)cc3)CCCCC2)cc1 0 (no)

Quick one: C[C@]12CC[C@@H](O)C[C@@H]1CC[C@@H]1[C@@H]2CC[C@]2(C)C(=O)CC[C@@H]12 1 (yes)

New cases:
Identify whether the reported z-score of the following molecule is -0.07 or greater: CCOC(=O)c1cncn1[C@@H](C)c1ccccc1 0 (no)

Quick one: CCCN1CCC[C@@H]2Cc3[nH]ncc3C[C@H]21 1 (yes)
